Experiment: Dissociation of chelates in aq. 1.0M HCl at 80° C. (acid decomplexation kinetic inertness) (Chart 18)
Assay type: physicochemical
Details: 1 week
Measurement name: fraction of intact chelate (%)
I only need the number, in %, no unit after it.

Record O=C1C[N@@]2CC[N@]3CC[N@@](CC[N@](CC2)Cc2cccc(n2)-c2cnnn2Cc2cc(-c4ccccc4)cc(n2)C3)CC(=O)[O][Gd][O]1 [TD527] . Reported fraction of intact chelate: 1

Record O=C1C[N@@]2CC[N@]3CC[N@@](CC[N@](CC2)Cc2cccc(n2)-c2cnnn2Cc2cc(-c4ccccc4)cc(n2)C3)CC(=O)[O][Dy][O]1 [TD866] . Reported fraction of intact chelate: 96

Record O=C1C[N@@]2CC[N@]3CC[N@@](CC[N@](CC2)Cc2cccc(n2)-c2cnnn2Cc2cc(-c4ccccc4)cc(n2)C3)CC(=O)[O][Lu][O]1 [TD522] . Reported fraction of intact chelate: 100

* * *

Assay: Dissociation of chelates in aq. 6.0M HCl at 80° C. (acid decomplexation kinetic inertness) (Chart 17)
Type: physicochemical
Details: 1 week
Task for the reader: assign each of the following compounds its reported fraction of intact chelate.
I only need the number, in %, no unit after it.

Record O=C1CN2CCN3CCN(CCN(CC2)Cc2cccc(n2)-c2cnnn2Cc2cccc(n2)C3)CP(=O)(O)[O][Lu][O]1 [TD734] . Reported fraction of intact chelate: 98

Record O=C1C[N@@]2CC[N@]3CC[N@@](CC[N@](CC2)Cc2cccc(n2)-c2cnnn2Cc2cc(-c4ccccc4)cc(n2)C3)CC(=O)[O][Tb][O]1 [TD600] . Reported fraction of intact chelate: 0

Record O=C1C[N@@]2CC[N@]3CC[N@@](CC[N@](CC2)Cc2cccc(n2)-c2cnnn2Cc2cc(-c4ccccc4)cc(n2)C3)CC(=O)[O][Y][O]1 [TD649] . Reported fraction of intact chelate: 7

Record O=C([O-])CN1CCN2CCN(CC(=O)[O-])CCN(CC1)Cc1cccc(n1)-c1cnnn1Cc1cc(-c3ccccc3)cc(n1)C2.[Pb+2] [TD876] . Reported fraction of intact chelate: 0

Record O=C([O-])CN1CCN2CCN(CC(=O)[O-])CCN(CC1)Cc1cccc(n1)-c1cnnn1Cc1cc(-c3ccccc3)cc(n1)C2.[Ca+2] [TD863] . Reported fraction of intact chelate: 0

Record O=P1(c2ccccc2)C[N@@]2CC[N@]3CC[N@@](CC[N@](CC2)Cc2cccc(n2)-c2cnnn2Cc2cccc(n2)C3)CP(=O)(c2ccccc2)[O][Gd][O]1 (stereo partly drawn) [TD925] . Reported fraction of intact chelate: 0

* * *

Assay: Formation of 1,5-cz-[Ln(Lig)] from Lig and Ln^III ions (metal dependent click-zip), MOPS/NaOH buffer pH 7.0, analytical HPLC (Charts 1, 2)
Details: Tb^III; after 1 hour at 80° C.; MOPS/NaOH buffer pH 7.0
Measurement name: conversion to 1,5-cz-[Ln(Lig)] with hydrolysed group in the side chain, Tb^III (%)
I only need the number, in %, no unit after it.

Record C#Cc1cccc(CN2CCN(CC(=O)O)CCN(Cc3cc(C(=O)OC)cc(CN=[N+]=[N-])n3)CCN(CC(=O)O)CC2)n1 [TD1092] . Reported conversion to 1,5-cz-[Ln(Lig)] with hydrolysed group in the side chain, Tb^III: 6

Record C#Cc1cccc(CN2CCN(CC(=O)O)CCN(Cc3cc(C(=O)OC(C)(C)C)cc(CN=[N+]=[N-])n3)CCN(CC(=O)O)CC2)n1 [TD1160] . Reported conversion to 1,5-cz-[Ln(Lig)] with hydrolysed group in the side chain, Tb^III: 9

Record CC(C)(C#Cc1cccc(CN2CCN(CC(=O)O)CCN(Cc3cccc(CN=[N+]=[N-])n3)CCN(CC(=O)O)CC2)n1)NC(=O)OC(C)(C)C [TD1105] . Reported conversion to 1,5-cz-[Ln(Lig)] with hydrolysed group in the side chain, Tb^III: 0

Record C#Cc1cccc(CN2CCN(CC(=O)O)CCN(Cc3cc(C(=O)OC(C)C)cc(CN=[N+]=[N-])n3)CCN(CC(=O)O)CC2)n1 [TD1148] . Reported conversion to 1,5-cz-[Ln(Lig)] with hydrolysed group in the side chain, Tb^III: 1

* * *

Assay: Formation of 1,5-cz-[Ln(Lig)] from Lig and Ln^III ions (metal dependent click-zip), MOPS/NaOH buffer pH 7.0, analytical HPLC (Charts 1, 2)
Conditions: La^III; after 1 hour at 80° C.; MOPS/NaOH buffer pH 7.0
Measurement name: conversion to 1,5-cz-[Ln(Lig)], La^III (%)
I only need the number, in %, no unit after it.

Record C#Cc1cccc(CN2CCN(CCC(=O)O)CCN(Cc3cccc(CN=[N+]=[N-])n3)CCN(CCC(=O)O)CC2)n1 . Reported conversion to 1,5-cz-[Ln(Lig)], La^III: 0

Record C#Cc1cccc(CN2CCN(CC(=O)O)CCN(Cc3cc(-c4ccc(C(=O)O)cc4)cc(CN=[N+]=[N-])n3)CCN(CC(=O)O)CC2)n1 . Reported conversion to 1,5-cz-[Ln(Lig)], La^III: 1

Record C#Cc1cccc(CN2CCN(CC(=O)NCC(=O)O)CCN(Cc3cc(-c4ccccc4)cc(CN=[N+]=[N-])n3)CCN(CC(=O)NCC(=O)O)CC2)n1 . Reported conversion to 1,5-cz-[Ln(Lig)], La^III: 24

Record [N-]=[N+]=NCc1cccc(CN2CCN(CC(=O)O)CCN(Cc3cccc(C#CC4CC4)n3)CCN(CC(=O)O)CC2)n1 . Reported conversion to 1,5-cz-[Ln(Lig)], La^III: 0

Record CC(C)(C#Cc1cccc(CN2CCN(CC(=O)O)CCN(Cc3cccc(CN=[N+]=[N-])n3)CCN(CC(=O)O)CC2)n1)NC(=O)OC(C)(C)C . Reported conversion to 1,5-cz-[Ln(Lig)], La^III: 0

Record C#CCNC(=O)CN1CCN(CC(=O)O)CCN(Cc2cc(-c3ccccc3)cc(CN=[N+]=[N-])n2)CCN(CC(=O)O)CC1 . Reported conversion to 1,5-cz-[Ln(Lig)], La^III: 0

Record [N-]=[N+]=NCc1cccc(CN2CCN(CC(=O)O)CCN(Cc3cccc(C#CC45CC6CC(CC(C6)C4)C5)n3)CCN(CC(=O)O)CC2)n1 . Reported conversion to 1,5-cz-[Ln(Lig)], La^III: 0

Record C#Cc1cccc(CN2CCN(CC(N)=O)CCN(Cc3cc(-c4ccccc4)cc(CN=[N+]=[N-])n3)CCN(CC(N)=O)CC2)n1 . Reported conversion to 1,5-cz-[Ln(Lig)], La^III: 0

Record C#Cc1cccc(CN2CCN(CC(=O)O)CCN(Cc3cc(C(=O)OC)cc(CN=[N+]=[N-])n3)CCN(CC(=O)O)CC2)n1 . Reported conversion to 1,5-cz-[Ln(Lig)], La^III: 0

Record [N-]=[N+]=NCc1cc(-c2ccccc2)cc(CN2CCN(CC(=O)O)CCN(Cc3cccc(C#CCN)n3)CCN(CC(=O)O)CC2)n1 . Reported conversion to 1,5-cz-[Ln(Lig)], La^III: 0

Record C#Cc1cccc(CN2CCN(CC(=O)O)CCN(Cc3cccc(CN=[N+]=[N-])n3)CCN(CC(=O)O)CC2)n1 . Reported conversion to 1,5-cz-[Ln(Lig)], La^III: 1

Record C#Cc1cccc(CN2CCN(CC(=O)O)CCN(Cc3cc(C(=O)OC(C)C)cc(CN=[N+]=[N-])n3)CCN(CC(=O)O)CC2)n1 . Reported conversion to 1,5-cz-[Ln(Lig)], La^III: 0

Record C#Cc1cccc(CN2CCN(CC(=O)O)CCN(Cc3cc(C(F)(F)F)cc(CN=[N+]=[N-])n3)CCN(CC(=O)O)CC2)n1 . Reported conversion to 1,5-cz-[Ln(Lig)], La^III: 0

Record CC(C)(N)C#Cc1cccc(CN2CCN(CC(=O)O)CCN(Cc3cc(-c4ccccc4)cc(CN=[N+]=[N-])n3)CCN(CC(=O)O)CC2)n1 . Reported conversion to 1,5-cz-[Ln(Lig)], La^III: 0

Record [N-]=[N+]=NCc1cccc(CN2CCN(CC(=O)O)CCN(Cc3cccc(C#CI)n3)CCN(CC(=O)O)CC2)n1 . Reported conversion to 1,5-cz-[Ln(Lig)], La^III: 0

Record [N-]=[N+]=NCc1cccc(CN2CCN(CC(=O)O)CCN(Cc3cccc(C#CC4CCNCC4)n3)CCN(CC(=O)O)CC2)n1 . Reported conversion to 1,5-cz-[Ln(Lig)], La^III: 0

Record CC(C)(C)C#Cc1cccc(CN2CCN(CC(=O)O)CCN(Cc3cccc(CN=[N+]=[N-])n3)CCN(CC(=O)O)CC2)n1 . Reported conversion to 1,5-cz-[Ln(Lig)], La^III: 0

Record [N-]=[N+]=NCc1cccc(CN2CCN(CC(=O)O)CCN(Cc3cccc(C#Cc4ccccc4)n3)CCN(CC(=O)O)CC2)n1 . Reported conversion to 1,5-cz-[Ln(Lig)], La^III: 0

Record C#Cc1cccc(CN2CCN(CP(=O)(O)c3ccccc3)CCN(Cc3cccc(CN=[N+]=[N-])n3)CCN(CP(=O)(O)c3ccccc3)CC2)n1 . Reported conversion to 1,5-cz-[Ln(Lig)], La^III: 0

Record C#Cc1cccc(CN2CCN(CC(=O)O)CCN(Cc3cccc(CN=[N+]=[N-])n3)CCN(CP(=O)(O)O)CC2)n1 . Reported conversion to 1,5-cz-[Ln(Lig)], La^III: 0

Record C#Cc1cccc(CN2CCN(CC(=O)O)CCN(Cc3cc(-c4ccccc4)cc(CN=[N+]=[N-])n3)CCN(CC(=O)O)CC2)n1 . Reported conversion to 1,5-cz-[Ln(Lig)], La^III: 1

Record C#CCN(CC#C)CCN1CCN(CC(=O)O)CCN(Cc2cc(-c3ccccc3)cc(CN=[N+]=[N-])n2)CCN(CC(=O)O)CC1 . Reported conversion to 1,5-cz-[Ln(Lig)], La^III: 0

Record C#Cc1cccc(CN2CCN(CP(=O)(O)OCC)CCN(Cc3cccc(CN=[N+]=[N-])n3)CCN(CP(=O)(O)OCC)CC2)n1 . Reported conversion to 1,5-cz-[Ln(Lig)], La^III: 0

Record C#Cc1cccc(CN2CCN(CC(=O)O)CCN(Cc3cc(N(C)C)cc(CN=[N+]=[N-])n3)CCN(CC(=O)O)CC2)n1 . Reported conversion to 1,5-cz-[Ln(Lig)], La^III: 0
